# Test system: GENE-TOX genotoxicity assays, various organisms and cells
# test-summary: GENE-TOX mutagenicity studies
# details: Species/Cell Type: Saccharomyces cerevisiae; Assay Type: Mitotic recombination or gene conversion; Assay Code: YEC+; Evaluation Type: Evaluation A (Pre-1980)
Activity calls are given as the source filed them. The rule behind the calls is not given here.
measured-property: mutagenic call

>>> endpoint_result("Cc1c(N)nc(C(CC(N)=O)NCC(N)C(N)=O)nc1C(=O)NC(C(=O)NC(C)C(O)C(C)C(=O)NC(C(=O)NCCc1nc(-c2nc(C(=O)NCCC[S+](C)C)cs2)cs1)C(C)O)C(O[C@@H]1O[C@@H](CO)[C@@H](O)[C@H](O)[C@@H]1O[C@H]1O[C@H](CO)[C@@H](O)[C@H](OC(N)=O)[C@@H]1O)c1cnc[nH]1 (stereo partly drawn)")
"active; positive"
>>> endpoint_result("Nc1ccc(/C=C/c2ccc([N+](=O)[O-])o2)nn1")
"active; positive"
>>> endpoint_result("O=NN(CCCl)C(=O)NCCCCCCNC(=O)N(CCCl)N=O")
"active; positive"
